- Tested on: PPARg:RXRa (NR concentration 180 nM, RXRa partner concentration 90 nM)
- method notes: PBM binding z-score (relative to random genomic background probes); higher = stronger binding; sequences stand for … in GC…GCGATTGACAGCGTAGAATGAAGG
Label scheme for PBM binding z-score: lower than 2 is no (0), 2 and above is yes (1).

- CCTACTGGGCCATCAGATCATTGATATCAACGTT: no (0)
- ATCGCAAGGTCGACGAGGTGAGTATACACCGTTT: no (0)
- CCTACTGGGCCAACAGGTCATTGATATCAACGTT: yes (1)
- TCTTGTAGCTCAAAGGTTAAGAAAGCCGAAGCCT: yes (1)
- AGTCAAAGTTCATGACGAGGTAACGTAAAGCACG: yes (1)
- TAGCTTAGGTCATGCGGGCCAGTATAGTGTCGGC: no (0)
- AGTCGAAGTTCAGGACGAGGTAACGTAAAGCACG: no (0)
- CCTGCTAGGTCACGGTCAGCTAATCTACAGTATG: yes (1)
- TCTGCTAGGTCAGTTGCTCAGCTAACGAGCTGCC: no (0)
- CCTACAGGGCCACGAAAGGTCATTGATTCAGTGA: no (0)
- CCTAGTAGGCCAGGGTCACTCAAGCATTTCGCTT: yes (1)
- GCAGACAGGTTAAACGCAGGTAACTCAGGGTGGC: no (0)
- ACTATTAGTTGAGACGAGGGCATCCGATAGGTTG: no (0)
- CGAACTAGGTCAACCAGGACAGTGAATACATTGA: yes (1)
- CCAGACAGGTGAGAAGGTGACTCAGCCTCGATTA: no (0)
- ATACCAAGTTGATCGTGAGGTCGTTGATACTAAC: no (0)
- ACTAGCAGGTCAAGTTTGGGTCACTCAAACAAAG: yes (1)
- CCTGCTAGGTCCATGGTCAGCTAAAGCAGCTCGC: no (0)
- TCTGCTAGGTCAGTTGATCAGCTAACGAGCTGCC: no (0)
- AGTAAAAGTTCAGGACGAGGTAACGTAAAGCACG: no (0)

* * *

Each entry below lists one item and its recorded PBM binding z-score value.
- Tested on: RARb:RXRa (NR concentration 270 nM, RXRa partner concentration 90 nM)
- method notes: PBM binding z-score (relative to random genomic background probes); higher = stronger binding; sequences stand for … in GC…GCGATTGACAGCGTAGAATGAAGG
measured parameter: PBM binding z-score

* TCTCGGAGGACAGGAAAGGTCAGAGCTCGACATC | 3.9
* TAGTCTAGGTCATGGGCCAGTATACCACGCGAAC | 3.95
* ATCGAAAGGTAGTGAGGTGAGTATACAGAAAGGC | 0.322
* TCTAGTTGGTCACGGAGGTCACACACGACGGGTA | 3.82
* ACTAGTTGGTGAGCTGAGGTCACACACAATTCGG | 2.98
* GCGACTGGGGCATCAGCAGGTTACCATTACTTAA | 0.832
* CCTAGTTGGTCAGGAGGTTACACACCGGATATGA | 1.47
* CCTTACGGGTCACGAGGTTATGGCACGACGAGCG | 4.51
* CAAACTAGGTCACAGGAAGGTCAAAGTCCGCATG | 4.93
* TCTATTAGTTGATTAGGGCAGCCGAAACAGCGGA | 0.624
* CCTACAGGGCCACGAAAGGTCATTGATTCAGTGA | 4.32
* GCGACTGGGGCAACAGCAGGTTACCATAACTTAA | 1.02
* TCTAGTCGGTCACGGAGGTCACACACGACGGGTA | 4.56
* CCTCGGAGGACAGAAGGTCAGAGCCGTCCGCTTT | 3.24
* TAGCCTAGGTCATTCAGGGGACAGTATAGAAAGC | 4.09
* TATACAGGGTCATAGGCCAGAGTACGAATGTCGA | 4.25
* CCTTACGTGTCACTCCAGGTTATAGCATCGGAGT | 1.16
* GCTTACGGGTCAGAGGTTATAGCATGAATAGAAT | 3.58
* TTATCAAGGTGAGCTGAGGTCGTTGATCCAACTC | 1.85
* GCTATTAGTTGAAAGGGCAATCGAATGATTCTCG | 1.74
* TCGAGTAGGTTTGTCGGGGCATTCAGCCAACATA | 0.0444
* CCGACTGGGGCACAAAGGTTACCATACCATCCGG | 2.31

* * *

Each entry below lists one item and its recorded PBM binding z-score value.
- Tested on: PPARg:RXRa DBDmut IVT, anti-RXR (DBD mutation: RXRa K156A/R161A, NR concentration 270 nM, RXRa partner concentration 90 nM)
- method notes: PBM binding z-score (relative to random genomic background probes); higher = stronger binding; sequences stand for … in GC…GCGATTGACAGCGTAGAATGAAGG
measured parameter: PBM binding z-score

- ATACCAAGGTGATCGTGAGGTCGGTGATACTAAC: 0.199
- ATCGAAAGGTGGAAGGTGAGTATACCCACCCGAA: -0.723
- AGAATGAGGTTACCAAACATCAGGGAAACGCTTG: 4
- ATATGTAGGTTAATGGTCATTCAGGTTGGTTCGC: 7.35

* * *

- Test system: RARg:RXRa (NR concentration 270 nM, RXRa partner concentration 90 nM)
- method notes: PBM binding z-score (relative to random genomic background probes); higher = stronger binding; sequences stand for … in GC…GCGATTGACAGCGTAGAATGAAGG
Each entry below lists one item and its recorded PBM binding z-score value.
measured parameter: PBM binding z-score

- CAAACTAGGTCAAGATGTCAAAGTCCGCTTCCCG: 4.72
- CGTCCAAGGTCGTAGGAGGTCAGTGAAGACAGAT: 4.63
- TCTAGCAGGCCAGAGGGTCACTCAAGAGGTACGG: 2.56
- GCTCGGAGGACAAAGTCAGAGCTTTGTCCGTAGA: -0.436
- GCCTGTAGATCAAGGTTAAGAAAGACTAAGCTAA: 0.329

* * *

- Test system: RARa homodimer (NR concentration 270 nM)
- method notes: PBM binding z-score (relative to random genomic background probes); higher = stronger binding; sequences stand for … in GC…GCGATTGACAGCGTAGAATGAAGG
Each entry below lists one item and its recorded PBM binding z-score value.
measured parameter: PBM binding z-score

• ACTATTAGTTGAGTCGAGGGCAACCGATAGGTTG = 0.945
• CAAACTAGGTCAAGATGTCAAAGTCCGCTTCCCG = 0.666
• TCTGCTAGGTTAGTTGGTCAGCTAACGAGCTGCC = -1.39
• CCTTACGGGTCACTCCAGGTTGTAGCATCGGAGT = 0.553
• ACTAGCAGGCCAAGTTTCGGTCACTCAAACAAAG = -0.205
• GCTATTAGTTGTAAGGGCAACCGAATGATTCTCG = 0.359
• CCTCGGAGGACAGAAGGGCAGAGCTGTCCGCTTT = -0.361
• ATGTCTAGGTAAAGTTCAGTGAAAGATCGATAGA = 1.09
• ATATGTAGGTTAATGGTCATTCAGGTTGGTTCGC = 1.49
• GCGACTGGGGCATCAGCAAGTTACCATAACTTAA = -0.707
• CTCGAAAGGTCGTTCTCAGGTGAGTATACCAAAC = -0.0759
• TCTTGTGGATCAGCAGGTTAAGAAAGCTGGCCAA = 0.249
• TAGCCTAGATCATTCAGGGGCCAGTATAGAAAGC = -0.596
• ATATGTAGGTTATCGGGTCATTAAGTTTGCGCAT = 1.51
• ATCTCTAGGTAACCAAGGTCAGTGAATGCCGAAC = 2.02
• CCAGACGGGTGAAAGGTAACTCAGTCTGGTACGC = -0.431

* * *

- Tested on: PPARg:RXRa (NR concentration 180 nM, RXRa partner concentration 90 nM)
- method notes: PBM binding z-score (relative to random genomic background probes); higher = stronger binding; sequences stand for … in GC…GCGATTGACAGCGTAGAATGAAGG
measured parameter: PBM binding z-score

* TCATATAGGTAAAGGGTGAAAGTCGGTGTGGTAA | 7.16
* TCAGACAGGTGAAGGTAACGCAGGTACGCAGTCG | 0.779
* CAAACTTGGTCACCGGAAGGTCAAAGTCCGCATG | 2.29
* CAGACTAGGTCACAGAGGTCAAAGTCCGTGCGTA | 8.66
* CAAACTAGGTCACGAAAGATCAAAGTCGAATGAC | 9.56

* * *

Each entry below lists one item and its recorded PBM binding z-score value.
- System: PPARg:RXRa 30nM:10nM, anti-RXR (NR concentration 30 nM, RXRa partner concentration 10 nM)
- method notes: PBM binding z-score (relative to random genomic background probes); higher = stronger binding; sequences stand for … in GC…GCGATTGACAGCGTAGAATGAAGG
measured parameter: PBM binding z-score

- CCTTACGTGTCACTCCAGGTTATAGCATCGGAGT: -0.302
- TGTCAAAGTTTAAAGGTAACGTAAGTATCCACAC: 1.98
- TCTTGTAGATCAATAGTGGTTAAGAAAGTGCGCT: 2.83
- TCTATTAGTTGATTAGGGCATCCGAAACAGCGGA: 3.47
- TCTGCTAGGTCAGTTGGTCAGGTAACGAGCTGCC: 1.15
